Where do the numbers come from? From ChEMBL document CHEMBL4417631.

protocol.details: Inhibition of interleukin-23 binding to rat interleukin-23 receptor incubated for 2 hrs by competitive binding ELISA
pIC50: −log10 of the molar value. Where a SMILES comes first, the peptide text is derived from it.

molecule	pIC50
CC(=O)N[C@@H](Cc1ccccc1)C(=O)N[C@@H](CS)C(=O)N[C@@H](CCC(N)=O)C(=O)N[C@H](C(=O)N[C@@H](Cc1c[nH]c2ccccc12)C(=O)N[C@@H](CCC(N)=O)C(=O)N[C@@H](CS)C(=O)N[C@@H](Cc1ccc(O)cc1)C(=O)N[C@@H](Cc1c[nH]c2ccccc12)C(=O)N[C@@H](CCC(C)C)C(=O)N[C@@H](CCC(=O)O)C(=O)N[C@@H](CC(N)=O)C(=O)NCC(N)=O)[C@@H](C)O	7.60
CC(=O)N[C@@H](CS)C(=O)N[C@@H](CCCNC(=N)N)C(=O)N[C@H](C(=O)N[C@@H](Cc1c[nH]c2ccccc12)C(=O)N[C@@H](CCC(N)=O)C(=O)N[C@@H](CS)C(=O)N[C@@H](Cc1ccc(O)cc1)C(=O)N[C@@H](Cc1c[nH]c2ccccc12)C(=O)N[C@@H](CO)C(=O)N[C@@H](CCC(=O)O)C(=O)N[C@@H](Cc1ccccc1)C(=O)NCC(=O)N[C@H](C(=O)NCC(=O)N[C@@H](CCC(=O)O)C(N)=O)[C@@H](C)O)[C@@H](C)O (Ac-CRTWQCYWSEFGTGE-NH2)	6.11

---

Each item that follows carries a reported pIC50.
protocol.details: Inhibition of interleukin-23 binding to rat interleukin-23 receptor incubated for 2 hrs by competitive binding ELISA
pIC50: −log10 of the molar value.

smiles	relation.operator	pIC50
CC(=O)N[C@@H](CS)C(=O)N[C@@H](CC(N)=O)C(=O)N[C@H](C(=O)N[C@@H](Cc1c[nH]c2ccccc12)C(=O)N[C@@H](CCC(N)=O)C(=O)N[C@@H](CS)C(=O)N[C@@H](Cc1ccc(O)cc1)C(=O)N[C@@H](Cc1c[nH]c2ccccc12)C(=O)N[C@@H](CCCNC(=N)N)C(=O)N[C@H](C(=O)N[C@@H](Cc1ccccc1)C(=O)NCC(=O)NCCOCC(=O)N[C@H](CCCCN)C(N)=O)C(C)C)[C@@H](C)O	=	7.10
CC(=O)N[C@@H](CC(C)C)C(=O)N[C@@H](CS)C(=O)N[C@@H](CCC(N)=O)C(=O)N[C@H](C(=O)N[C@@H](Cc1c[nH]c2ccccc12)C(=O)N[C@@H](CCC(N)=O)C(=O)N[C@@H](CS)C(=O)N[C@@H](Cc1ccc(O)cc1)C(=O)N[C@@H](Cc1c[nH]c2ccccc12)C(=O)N[C@@H](CCC(C)C)C(=O)N[C@@H](CCC(=O)O)C(=O)N[C@@H](CC(N)=O)C(=O)NCC(N)=O)[C@@H](C)O	=	7.59
CC(=O)N[C@@H](CS)C(=O)N[C@@H](CCC(N)=O)C(=O)N[C@H](C(=O)N[C@@H](Cc1c[nH]c2ccccc12)C(=O)N[C@@H](CCC(N)=O)C(=O)N[C@@H](CS)C(=O)N[C@@H](Cc1ccc(O)cc1)C(=O)N[C@@H](Cc1c[nH]c2ccccc12)C(=O)N[C@@H](CCC(C)C)C(=O)N[C@@H](CCC(=O)O)C(=O)N1CCC[C@H]1C(=O)NCC(N)=O)[C@@H](C)O	=	6.85
CC(=O)NCCCC[C@H](NC(=O)C(C)(C)NC(=O)[C@H](Cc1ccc2ccccc2c1)NC(=O)[C@H](Cc1ccc(OCCN)cc1)NC(=O)[C@@H](NC(=O)[C@H](CCC(N)=O)NC(=O)[C@H](Cc1c[nH]c2ccccc12)NC(=O)[C@@H](NC(=O)[C@H](CC(N)=O)NC(=O)[C@@H](NC(C)=O)C(C)(C)S)[C@@H](C)O)C(C)(C)S)C(=O)N[C@@H](CC(N)=O)C(=O)N[C@@H](CC(N)=O)C(N)=O	>	8.00
